# Tested on: isolated rat aortae
# Assay Comment: Vasorelaxing effect on the isolated rat aortae (Referential Example 1)-1)
# Measurement Setup: inhibition of contraction induced by 40 mM KCl
# Protocol: The compounds of the present invention were tested for their physiological activities by measuring the tension of isolated rat aortae isometrically. Thoracic aortae obtained from male Wistar rats (weighing 250-350 g) were cut into ring segments about 3 mm long. […] After the contraction induced by KCl had reached plateau, the concentration-response relationship for the test compound was determined by means of cumulative addition. […]
Measure: IC50 (µM)

{"Molecule": "Cc1ccc(N=C(NC#N)c2cccnc2)cc1 [(16)]", "Value Reported": 17}
{"Molecule": "COc1ccccc1CCN=C(NC#N)c1cccnc1 [(28)]", "Value Reported": 70}
{"Molecule": "CC(N=C(NC#N)c1ccccn1)C(O)c1ccccc1 (centres unmarked) [(11)]", "Value Reported": 12}
{"Molecule": "N#CNC(=NCC(c1ccccc1)c1ccccc1)c1cccnc1 [(36)]", "Value Reported": 16}
{"Molecule": "N#CNC(=NCc1cc(C(F)(F)F)cc(C(F)(F)F)c1)c1cccnc1 [(25)]", "Value Reported": 24}
{"Molecule": "N#CN=C(NCCO[N+](=O)[O-])c1ccc(Cl)nc1 [(52)]", "Value Reported": 11}
{"Molecule": "N#CNC(=NCCCO[N+](=O)[O-])c1ccncc1 [(42)]", "Value Reported": 20}
{"Molecule": "COc1ccccc1CCN=C(NC#N)c1ccncc1 [(48)]", "Value Reported": 73}
{"Molecule": "N#CNC(=Nc1ccccc1)c1ccncc1 [(43)]", "Value Reported": 52}
{"Molecule": "N#CNC(=NC(Cc1ccccc1)c1ccccc1)c1cccnc1 (centres unmarked) [(35)]", "Value Reported": 18}
{"Molecule": "N#CN=C(NCCc1ccccc1)c1ccc(Cl)nc1 [(53)]", "Value Reported": 77}

###

Each entry below carries its reported log10 ED20.
# Test system: spontaneous hypertensive rats (SHR)
# Assay Comment: Hypotensive effect on spontaneous hypertensive rats (intravenously) (Referential Example 1)-3)
# Format: in vivo
# Measurement Setup: Rattus norvegicus, iv, anesthetized SHR, dose descending mean blood pressure by 20%; read-out: ED₂₀ (mg/kg, i.v.)
Measure: log10 ED20 (log10 of the value in mg/kg)

{"Chem Smiles": "N#CNC(=NCCO[N+](=O)[O-])c1cccnc1", "Study Target": "spontaneous hypertensive rats (SHR)", "log10 ED20": -2.00}
{"Chem Smiles": "N#CNC(=NCCc1ccccc1Cl)c1cccnc1", "Study Target": "spontaneous hypertensive rats (SHR)", "log10 ED20": -1.89}
{"Chem Smiles": "N#CNC(=NCc1ccccc1)c1cccnc1", "Study Target": "spontaneous hypertensive rats (SHR)", "log10 ED20": -0.60}
{"Chem Smiles": "N#CNC(=NCCO[N+](=O)[O-])c1ccncc1", "Study Target": "spontaneous hypertensive rats (SHR)", "log10 ED20": -0.89}
{"Chem Smiles": "N#CNC(=NCCO[N+](=O)[O-])c1ccccn1", "Study Target": "spontaneous hypertensive rats (SHR)", "log10 ED20": -1.43}
{"Chem Smiles": "N#CNC(=NCCc1ccccc1)c1cccnc1", "Study Target": "spontaneous hypertensive rats (SHR)", "log10 ED20": -1.13}

###

# System: isolated rat aortae
# Assay Comment: Vasorelaxing effect on the isolated rat aortae (Referential Example 1)-1)
# Measurement Setup: inhibition of contraction induced by 40 mM KCl
# Procedure: The compounds of the present invention were tested for their physiological activities by measuring the tension of isolated rat aortae isometrically. Thoracic aortae obtained from male Wistar rats (weighing 250-350 g) were cut into ring segments about 3 mm long. […] After the contraction induced by KCl had reached plateau, the concentration-response relationship for the test compound was determined by means of cumulative addition. […]
pIC50: −log10 of the molar value.

{"Compound": "N#CNC(=NCc1cccc(OCc2ccccc2)c1)c1ccncc1", "pIC50": 4.52}
{"Compound": "N#CNC(=NCCC(c1ccccc1)c1ccccc1)c1cccnc1", "pIC50": 4.55}
{"Compound": "N#CNC(=NCCc1ccc(OCc2ccccc2)c(OCc2ccccc2)c1)c1cccnc1", "pIC50": 4.32}
{"Compound": "N#CN=C(N)c1cccnc1 [N-cyano-3-pyridine-carboxyimidamide, reference compound]", "pIC50": 1.40}
{"Compound": "Cc1ccc(CN=C(NC#N)c2ccccn2)cc1", "pIC50": 4.29}
{"Compound": "N#CNC(=NC(c1ccccc1)c1ccccc1)c1cccnc1", "pIC50": 4.42}
{"Compound": "N#CNC(=NCCc1ccc(Cl)cc1)c1cccnc1", "pIC50": 4.37}
{"Compound": "N#CNC(=NCc1ccc(Cl)cc1)c1ccccn1", "pIC50": 4.64}
{"Compound": "COc1ccc(NC(=NC#N)c2cccnc2)c(OC)n1", "pIC50": 4.40}
{"Compound": "N#CNC(=NCc1ccc(Cl)c(Cl)c1)c1cccnc1", "pIC50": 4.68}
